Each item that follows carries a reported pIC50.
tested_on: UniProt:P42336
Sequence (P42336 whole entry, looked up): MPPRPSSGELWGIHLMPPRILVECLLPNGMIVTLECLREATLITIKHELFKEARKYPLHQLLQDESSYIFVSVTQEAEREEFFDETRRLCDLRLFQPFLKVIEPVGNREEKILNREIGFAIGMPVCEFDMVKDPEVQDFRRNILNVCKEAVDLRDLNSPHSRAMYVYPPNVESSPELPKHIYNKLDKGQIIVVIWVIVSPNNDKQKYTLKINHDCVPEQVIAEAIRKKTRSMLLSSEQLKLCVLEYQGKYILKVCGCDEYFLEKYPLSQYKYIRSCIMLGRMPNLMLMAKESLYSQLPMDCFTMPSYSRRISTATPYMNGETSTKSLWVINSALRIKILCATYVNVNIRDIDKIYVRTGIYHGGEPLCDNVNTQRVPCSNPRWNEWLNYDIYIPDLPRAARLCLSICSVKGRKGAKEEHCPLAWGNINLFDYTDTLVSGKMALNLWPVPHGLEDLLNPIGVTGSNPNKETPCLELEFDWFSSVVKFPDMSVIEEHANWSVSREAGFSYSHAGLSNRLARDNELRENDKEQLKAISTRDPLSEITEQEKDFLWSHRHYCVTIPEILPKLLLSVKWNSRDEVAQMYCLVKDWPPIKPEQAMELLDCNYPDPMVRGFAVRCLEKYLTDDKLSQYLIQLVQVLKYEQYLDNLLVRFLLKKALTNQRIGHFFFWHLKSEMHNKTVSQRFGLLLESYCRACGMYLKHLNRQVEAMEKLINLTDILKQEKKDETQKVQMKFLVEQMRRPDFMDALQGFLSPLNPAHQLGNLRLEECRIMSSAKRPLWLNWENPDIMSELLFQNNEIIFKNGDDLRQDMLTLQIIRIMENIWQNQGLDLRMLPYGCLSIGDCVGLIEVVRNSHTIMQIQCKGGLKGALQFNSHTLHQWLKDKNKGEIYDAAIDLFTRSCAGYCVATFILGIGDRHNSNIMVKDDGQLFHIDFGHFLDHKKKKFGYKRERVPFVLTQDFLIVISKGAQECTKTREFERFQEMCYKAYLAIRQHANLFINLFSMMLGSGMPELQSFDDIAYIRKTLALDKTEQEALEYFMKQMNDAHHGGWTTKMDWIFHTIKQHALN
protocol_text: Assessment of PIK3CA Kinase Activity
pIC50: −log10 of the molar value.

compound | tested_on | pIC50
C[C@H](Nc1nc(Cl)nc2nccnc12)c1cc2cccc(Cl)c2c(=O)n1-c1ccccc1 | UniProt:P42336 | < 5.00
COc1nc(N[C@@H](C)c2cc3cccc(Cl)c3c(=O)n2-c2ccccc2)c2ncccc2n1 | UniProt:P42336 | < 5.00
C[C@H](Nc1ccnc2ccnn12)c1cc2cccc(Cl)c2c(=O)n1CCN1CCCC1 | UniProt:P42336 | < 5.00
C[C@@H](c1cc2cccc(Cl)c2c(=O)n1-c1ccccc1)n1c(=O)[nH]c2cnc(N)nc21 | UniProt:P42336 | < 5.00
C[C@H](Nc1ncnc2[nH]cnc12)c1cc2scc(C(F)(F)F)c2c(=O)n1-c1ccccc1 | UniProt:P42336 | 6.00 to 7.00
Cc1cc(-c2cccc3cc([C@H](C)Nc4ncnc5cccnc45)n(-c4ccccc4)c(=O)c23)ccn1 | UniProt:P42336 | 6.00 to 7.00
Cc1ccnc2cc(C(C)Nc3ncnc4cccnc34)[nH]c(=O)c12 (stereo not drawn) | UniProt:P42336 | < 5.00
C[C@H](Nc1cc(Cl)nn2ccnc12)c1cc2cccc(-c3cnn(C)c3)c2c(=O)n1C1CC1 | UniProt:P42336 | < 5.00
COc1ncc(-c2cccc3cc([C@H](C)Nc4nc(OC)nc5cccnc45)n(-c4ccccc4)c(=O)c23)cn1 | UniProt:P42336 | < 5.00
C[C@H](Nc1nc(Cl)nc2scnc12)c1cc2cccc(C(F)(F)F)c2c(=O)n1-c1ccccc1 | UniProt:P42336 | < 5.00
Cc1cc(-c2cccc3cc([C@H](C)Nc4nc(N)nc5cccnc45)n(-c4ccccc4)c(=O)c23)ccn1 | UniProt:P42336 | 6.00 to 7.00
C[C@H](Nc1cc(N)ncc1C(N)=O)c1cc2cccc(Cl)c2c(=O)n1-c1ccccc1 | UniProt:P42336 | 6.00 to 7.00
C[C@H](Nc1nc(N)nc2cccnc12)c1cc2cccc(N(C)C)c2c(=O)n1-c1ccccc1 | UniProt:P42336 | < 5.00
COc1ncc(-c2cccc3cc([C@H](C)Nc4nc(O)nc5cccnc45)n(-c4ccccc4)c(=O)c23)cn1 | UniProt:P42336 | < 5.00
COc1ncc(-c2cccc3cc([C@H](C)Nc4nc(N)nc5cccnc45)n(-c4ccccc4)c(=O)c23)cn1 | UniProt:P42336 | < 5.00
C[C@H](Nc1ncnn2cncc12)c1cc2cccc(C(F)(F)F)c2c(=O)n1-c1ccccc1 | UniProt:P42336 | < 5.00
C[C@H](Nc1ncnc2cc(F)c(F)cc12)c1cc2cccc(Cl)c2c(=O)n1-c1ccccc1 | UniProt:P42336 | < 5.00
C[C@H](Nc1ncnc(N)n1)c1cc2cccc(Cl)c2c(=O)n1-c1cccc(F)c1 | UniProt:P42336 | < 5.00

* * *

tested_on: PIK3CB (Human) (UniProt P42338)
Sequence (P42338 whole entry, looked up): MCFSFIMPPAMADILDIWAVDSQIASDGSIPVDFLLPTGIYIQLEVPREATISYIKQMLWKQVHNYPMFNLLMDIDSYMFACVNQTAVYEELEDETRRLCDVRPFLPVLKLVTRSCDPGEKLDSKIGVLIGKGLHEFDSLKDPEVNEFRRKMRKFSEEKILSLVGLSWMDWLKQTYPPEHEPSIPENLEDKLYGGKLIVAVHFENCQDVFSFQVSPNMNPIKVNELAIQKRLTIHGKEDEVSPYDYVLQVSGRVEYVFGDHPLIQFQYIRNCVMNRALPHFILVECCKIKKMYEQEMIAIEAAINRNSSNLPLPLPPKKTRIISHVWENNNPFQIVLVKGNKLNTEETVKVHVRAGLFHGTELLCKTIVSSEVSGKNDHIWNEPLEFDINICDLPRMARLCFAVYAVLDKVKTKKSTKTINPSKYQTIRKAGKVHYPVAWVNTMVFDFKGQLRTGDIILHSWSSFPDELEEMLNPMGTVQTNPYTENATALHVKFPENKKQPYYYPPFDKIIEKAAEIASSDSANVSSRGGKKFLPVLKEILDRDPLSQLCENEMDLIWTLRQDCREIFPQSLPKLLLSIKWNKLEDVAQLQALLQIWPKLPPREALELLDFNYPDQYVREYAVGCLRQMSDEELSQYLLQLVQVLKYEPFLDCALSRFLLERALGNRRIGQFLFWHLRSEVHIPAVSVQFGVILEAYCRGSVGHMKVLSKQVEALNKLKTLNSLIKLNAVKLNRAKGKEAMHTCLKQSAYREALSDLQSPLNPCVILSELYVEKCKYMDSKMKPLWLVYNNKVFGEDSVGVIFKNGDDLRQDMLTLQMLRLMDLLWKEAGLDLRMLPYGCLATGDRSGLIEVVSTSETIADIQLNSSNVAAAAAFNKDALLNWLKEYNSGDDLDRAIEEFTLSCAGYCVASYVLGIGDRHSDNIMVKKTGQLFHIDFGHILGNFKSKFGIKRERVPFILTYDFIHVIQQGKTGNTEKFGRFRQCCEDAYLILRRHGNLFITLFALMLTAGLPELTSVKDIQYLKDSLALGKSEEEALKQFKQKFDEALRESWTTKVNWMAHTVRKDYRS
protocol_text: Assessment of PIK3CB Kinase Activity
pIC50: −log10 of the molar value.
parameter_measured: pIC50

chemical_smiles | parameter_measured | observed_measurement
C[C@H](Nc1nc(N)nc2cccnc12)c1cc2cccc(-c3cnc4[nH]ccc4c3)c2c(=O)n1-c1ccccc1 | pIC50 | 6.00 to 7.00
C[C@H](Nc1nc(O)nc2[nH]cnc12)c1cc2cccc(C(F)(F)F)c2c(=O)n1-c1cccc(F)c1 | pIC50 | < 5.00
COc1ccc(-c2cccc3cc([C@H](C)Nc4ncnc5cccnc45)n(-c4ccccc4)c(=O)c23)cn1 | pIC50 | < 5.00
C[C@H](Nc1ncnc2cccnc12)c1cc2cc(F)ccc2c(=O)n1-c1ccccc1 | pIC50 | < 5.00
C[C@H](Nc1nc(N)nc2cccnc12)c1cc2cccc(-c3cnn(C)c3)c2c(=O)n1-c1cccc(F)c1 | pIC50 | < 5.00
C[C@H](Nc1ccnn2ccnc12)c1cc2scc(Cl)c2c(=O)n1-c1ccccc1 | pIC50 | 6.00 to 7.00
Cc1cn2nccc(N[C@@H](C)c3cc4cccc(C(F)(F)F)c4c(=O)n3-c3ccccc3)c2n1 | pIC50 | < 5.00
C[C@H](Nc1ccnn2ccnc12)c1cc2cccc(Cl)c2c(=O)n1-c1ccccc1 | pIC50 | > 7.00
CNc1nc(N[C@@H](C)c2cc3cccc(-c4cnc(C)nc4)c3c(=O)n2-c2ccccc2)c2ncccc2n1 | pIC50 | < 5.00
